experimentDescription: Inhibition of Notch pathway in mouse L cells at 2.5 uM
Activity calls are given as the source filed them. The rule behind the calls is not given here.

substanceSmiles: COc1ccc(-n2nc(C(=O)NCC(=O)Nc3nc4ccc(OC)cc4s3)c3ccccc3c2=O)cc1
inhibition: inactive

substanceSmiles: Cc1ccc2nc(NC(=O)CSc3nc4c(c(=O)n3-c3ccc(F)cc3)SCC4)sc2c1
inhibition: inactive

substanceSmiles: COc1ccccc1-n1c(SCC(=O)Nc2nc3ccc(C)cc3s2)nc2c(c1=O)SCC2
inhibition: inactive

substanceSmiles: Cc1ccc2nc(NC(=O)CSc3nc4c(c(=O)n3-c3ccccc3)SCC4)sc2c1
inhibition: inactive

---

systemName: Axin-2 (Homo sapiens) (UniProt Q9Y2T1)
Sequence (Q9Y2T1 whole entry): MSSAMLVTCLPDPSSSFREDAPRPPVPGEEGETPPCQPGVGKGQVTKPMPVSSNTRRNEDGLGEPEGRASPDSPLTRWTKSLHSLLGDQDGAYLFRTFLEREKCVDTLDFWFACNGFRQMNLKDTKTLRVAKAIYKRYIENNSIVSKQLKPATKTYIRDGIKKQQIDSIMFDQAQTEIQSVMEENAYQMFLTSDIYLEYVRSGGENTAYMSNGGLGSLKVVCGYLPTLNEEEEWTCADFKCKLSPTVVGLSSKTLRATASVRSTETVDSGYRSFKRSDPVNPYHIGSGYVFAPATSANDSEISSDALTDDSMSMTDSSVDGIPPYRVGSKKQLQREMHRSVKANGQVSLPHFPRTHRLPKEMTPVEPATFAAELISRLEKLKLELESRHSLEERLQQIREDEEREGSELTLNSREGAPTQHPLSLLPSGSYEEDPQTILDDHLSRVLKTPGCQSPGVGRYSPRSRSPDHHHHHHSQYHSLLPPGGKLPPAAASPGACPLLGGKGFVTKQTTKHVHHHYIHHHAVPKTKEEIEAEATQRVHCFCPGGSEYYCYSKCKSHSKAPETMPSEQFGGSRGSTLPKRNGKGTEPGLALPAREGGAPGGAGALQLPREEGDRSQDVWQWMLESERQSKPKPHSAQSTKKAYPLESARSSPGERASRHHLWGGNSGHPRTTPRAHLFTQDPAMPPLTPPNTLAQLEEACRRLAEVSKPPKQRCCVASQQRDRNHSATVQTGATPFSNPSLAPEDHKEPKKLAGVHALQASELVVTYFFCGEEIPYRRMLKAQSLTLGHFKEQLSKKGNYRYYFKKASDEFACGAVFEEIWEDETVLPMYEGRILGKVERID
experimentDescription: Induction of Axin2 accumulation in human DLD1 cells by Western blot analysis
Type: cell-based
conditionSet: DLD-1
Active and inactive are the calls of the source. No cut-off for these calls is given here.
measurementName: Activity

// known answers, use as guide
compound: Cc1ccnc2c(NC(=O)c3ccc(N4C(=O)[C@@H]5[C@H](C4=O)[C@@H]4C=C[C@H]5C4)cc3)cccc12
Activity: Active
--
compound: O=C(Nc1cccc2cccnc12)c1ccc(N2C(=O)[C@@H]3[C@H](C2=O)[C@@H]2C=C[C@H]3C2)cc1
Activity: Active
--
compound: N#Cc1ccccc1Cn1c(=O)n(CC2CCC(C(=O)NCc3ccccc3)CC2)c(=O)c2ccccc21 (stereo not given)
Activity: Active
--
compound: O=C(NC1CCCC1)c1ccc(Cn2c(=O)c3ccccc3n(Cc3cc(=O)n4ccccc4n3)c2=O)cc1
Activity: Active

Proceed to the following item.
Cc1cccc2nc(Cn3c(=O)n(CC4CCC(C(=O)NCc5ccccc5)CC4)c(=O)c4ccccc43)cc(=O)n12 (stereo not given) on Axin-2 (Homo sapiens) (UniProt Q9Y2T1) gives Activity = Active

Origin of values: ChEMBL document CHEMBL1255380
